settings: in ethyl acetate, 288.15 K

>  <SMI>
O=C(O)[C@@H]1C[C@@H](O)CN1

>  <solubility (mole fraction)>
0.000653

$$$$

* * *

conditions: in 1,4-dioxane, 333.15 K

>  <SMI>
O=C(O)[C@@H]1C[C@@H](O)CN1

>  <solubility (mole fraction)>
0.00274

$$$$

* * *

conditions: in ethanol, 313.15 K

>  <SMI>
O=C(O)[C@@H]1C[C@@H](O)CN1

>  <solubility (mole fraction)>
0.000313

$$$$

* * *

conditions: in acetonitrile, 298.15 K

>  <SMI>
O=C(O)[C@@H]1C[C@@H](O)CN1

>  <solubility (mole fraction)>
0.000103

$$$$

* * *

conditions: in n-propanol, 298.15 K

>  <SMI>
O=C(O)[C@@H]1C[C@@H](O)CN1

>  <solubility (mole fraction)>
0.000154

$$$$

* * *

conditions: in n-pentanol, 293.15 K
TEST_READOUT: solubility (mole fraction)

>  <SMI>
O=C(O)[C@@H]1C[C@@H](O)CN1

>  <RESULT>
0.000114

$$$$

* * *

settings: in n-butanol, 313.15 K

>  <SMI>
O=C(O)[C@@H]1C[C@@H](O)CN1

>  <solubility (mole fraction)>
0.000264

$$$$

* * *

details: in isopropanol, 313.15 K

>  <SMI>
O=C(O)[C@@H]1C[C@@H](O)CN1

>  <solubility (mole fraction)>
0.000254

$$$$

* * *

conditions: in 1,4-dioxane, 298.15 K

>  <SMI>
O=C(O)[C@@H]1C[C@@H](O)CN1

>  <solubility (mole fraction)>
0.00085

$$$$

* * *

details: in methanol, 298.15 K

>  <SMI>
O=C(O)[C@@H]1C[C@@H](O)CN1

>  <solubility (mole fraction)>
0.000212

$$$$

* * *

conditions: in 1,4-dioxane, 313.15 K

>  <SMI>
O=C(O)[C@@H]1C[C@@H](O)CN1

>  <solubility (mole fraction)>
0.00153

$$$$

* * *

conditions: in water, 283.15 K

>  <SMI>
O=C(O)[C@@H]1C[C@@H](O)CN1

>  <solubility (mole fraction)>
0.0457

$$$$

* * *

conditions: in 1,4-dioxane, 318.15 K
TEST_READOUT: solubility (mole fraction)

>  <SMI>
O=C(O)[C@@H]1C[C@@H](O)CN1

>  <TEST_READOUT>
solubility (mole fraction)

>  <NUMERIC_VALUE>
0.00178

$$$$

* * *

details: in ethanol, 288.15 K

>  <SMI>
O=C(O)[C@@H]1C[C@@H](O)CN1

>  <solubility (mole fraction)>
0.000109

$$$$

* * *

conditions: in n-butanol, 303.15 K

>  <SMI>
O=C(O)[C@@H]1C[C@@H](O)CN1

>  <solubility (mole fraction)>
0.000181

$$$$

* * *

conditions: in n-butanol, 333.15 K

>  <SMI>
O=C(O)[C@@H]1C[C@@H](O)CN1

>  <solubility (mole fraction)>
0.0005

$$$$

* * *

details: in isopropanol, 288.15 K

>  <SMI>
O=C(O)[C@@H]1C[C@@H](O)CN1

>  <solubility (mole fraction)>
6.8e-05

$$$$

* * *

details: in methyl acetate, 293.15 K
TEST_READOUT: solubility (mole fraction)

>  <SMI>
O=C(O)[C@@H]1C[C@@H](O)CN1

>  <RESULT>
8e-05

$$$$
